assay target: Recombinant EpCAM (R&D systems), conjugated with Alexa Fluor 647 (UniProt P16422)
protocol notes: flow cytometry, AF647-labelled recombinant EpCAM at 360nM on HEK293T cells expressing the myc-tagged CAR; ratio to anti-myc-FITC signal
measured parameter: MFIAF647/MFIFITC

I = CAR containing L4A scFv (UBS-54 variant, CDR-H3 DPFAHY) (from UniProt P01732 138-182; P10747 153-220; P20963 52-164)
II = CAR containing Y6A scFv (UBS-54 variant, CDR-H3 DPFLHA) (from UniProt P01732 138-182; P10747 153-220; P20963 52-164)
III = CAR containing Y6V scFv (UBS-54 variant, CDR-H3 DPFLHV) (from UniProt P01732 138-182; P10747 153-220; P20963 52-164)
query: List these items ordered by MFIAF647/MFIFITC, big to small. Please reply with the labels ordered as requested. Many thanks.
result: I, III, II
